Tested on: HBV cccDNA (HBeAg level) in HepDES19 cells
Experiment: Engineered HepDES19 primary screen assay (HBeAg as surrogate marker for cccDNA)
Type: cell-based
Settings: Hepatitis B virus, HepDES19, 120 h
Endpoint: IC50

- O=C(Nc1ccc(Cl)cc1OCCOC1CC(C(=O)O)C1)c1cc(=O)c2cccc(Cl)c2o1 (centres unmarked) [Example 34]: 44.6 µM
- O=C(c1cc(=O)c2cccc(Cl)c2o1)N1CCc2cccc(Cl)c2C1 [Example 28]: 24.3 µM
- CCOC(=O)c1nnc(NC(=O)c2cc(=O)c3cccc(Cl)c3o2)s1 [Example 35]: 44.6 µM
- O=C(O)CCCOc1cc(Cl)ccc1NC(=O)c1cc(=O)c2cc(Cl)cc(Cl)c2o1 [Example 11]: 3.12 µM
- O=C(O)COCCOc1cc(Cl)ccc1NC(=O)c1cc(=O)c2cc(Cl)cc(Cl)c2o1 [Example 22]: 11.9 µM
- O=C(c1cc(=O)c2cccc(Cl)c2o1)N1CCc2cc(Br)ccc2C1 [Example 17]: 10.8 µM
- O=c1c(I)c(-n2ccc(OCc3ccccc3)cc2=O)oc2c(Cl)cccc12 [Example 46]: 9.66 µM
- O=C(O)C1CC(OCCOc2ccc3c(c2)CN(c2cc(=O)c4cccc(Cl)c4o2)C3=O)C1 (centres unmarked) [Example 64]: 36.6 µM

* * *

Below is a list of entries, each paired with its recorded pIC50 value.
Tested on: HBV cccDNA (HBeAg level) in HepDES19 cells
Test: Engineered HepDES19 primary screen assay (HBeAg as surrogate marker for cccDNA)
Type: cell-based
Conditions: Hepatitis B virus, HepDES19, 120 h
pIC50: −log10 of the molar value.
Endpoint: pIC50

• COc1ccc2c(c1)C(=O)N(c1cc(=O)c3cccc(Cl)c3o1)CC2 [Example 65] = 4.42
• COC(=O)c1ccc(CNC(=O)c2cc(=O)c3cccc(Cl)c3o2)cc1 [Example 26] = 4.69
• COC(=O)c1ccc(C)c(NC(=O)c2cc(=O)c3cccc(Cl)c3o2)c1 [Example 21] = 4.96

* * *

System: HBV cccDNA (HBeAg level) in HepDES19 cells
Assay: Engineered HepDES19 primary screen assay (HBeAg as surrogate marker for cccDNA)
Type: cell-based
Settings: Hepatitis B virus, HepDES19, 120 h
pIC50: −log10 of the molar value.
Listing: pIC50 of selected compounds
Endpoint: pIC50

- CC1c2ccc(O)cc2CCN1c1cc(=O)c2cccc(Cl)c2o1 (stereo not shown): 4.70
- O=C(O)COc1cc(Cl)ccc1NC(=O)c1cc(=O)c2cccc(Cl)c2o1: 4.30
- O=c1cc(N2CCC(c3ccccc3)CC2)oc2c(Cl)cc(F)cc12: 4.91
- Cc1cc(O)ccc1NC(=O)c1cc(=O)c2cccc(Cl)c2o1: 4.59
- COC(=O)C1CC(OCCOc2ccc3c(c2)C(=O)N(c2cc(=O)c4cccc(Cl)c4o2)C3)C1 (stereo not shown): 4.80
- COc1ccc2c(c1)C(=O)N(c1cc(=O)c3cccc(Cl)c3o1)C2: 4.78
- CC(C)(C)OC(=O)N1CC2(C1)CN(c1cc(=O)c3cccc(Cl)c3o1)C2: 4.48
- COc1ccc(CNc2oc3c(Cl)cccc3c(=O)c2I)cc1: 5.36
- O=c1cc(N2CCN(c3ccccc3)CC2)oc2c(Cl)cc(F)cc12: 5.07
- O=C(Nc1ccc(Cl)cc1OC1CC(C(=O)O)C1)c1cc(=O)c2cccc(Cl)c2o1 (stereo not shown): 5.78
- Cc1cc(Cl)ccc1NC(=O)c1oc2ccc(Cl)cc2c(=O)c1C: 6.19
- O=C(c1cc(=O)c2cccc(Cl)c2o1)N1Cc2ccc(Br)cc2C1: 5.44
- COC(=O)c1cccc(COC2CC3CCC(C2)N3c2cc(=O)c3cccc(Cl)c3o2)c1 (stereo not shown): 5.40
- O=c1cc(-n2ccc(OCc3ccccc3)cc2=O)oc2c(Cl)cccc12: 4.61
- O=C(O)COCCOc1cc(Cl)ccc1NC(=O)c1cc(=O)c2cccc(Cl)c2o1: 4.86
- CC(NC(=O)c1cc(=O)c2cccc(Cl)c2o1)c1ccc(Br)cc1 (stereo not shown): 4.60
- COc1cc(Br)cnc1NC(=O)c1cc(=O)c2cccc(Cl)c2o1: 4.47
- O=C(O)C1CC(OCCOc2ccc3c(c2)CCN(c2cc(=O)c4cccc(Cl)c4o2)C3=O)C1 (stereo not shown): 4.63
- O=c1cc(N2C3CCC2CC(O)C3)oc2c(Cl)cccc12 (stereo not shown): 4.83
